# Target or test system: FGFR3 (UniProt P22607)
# Sequence (P22607 whole entry, looked up): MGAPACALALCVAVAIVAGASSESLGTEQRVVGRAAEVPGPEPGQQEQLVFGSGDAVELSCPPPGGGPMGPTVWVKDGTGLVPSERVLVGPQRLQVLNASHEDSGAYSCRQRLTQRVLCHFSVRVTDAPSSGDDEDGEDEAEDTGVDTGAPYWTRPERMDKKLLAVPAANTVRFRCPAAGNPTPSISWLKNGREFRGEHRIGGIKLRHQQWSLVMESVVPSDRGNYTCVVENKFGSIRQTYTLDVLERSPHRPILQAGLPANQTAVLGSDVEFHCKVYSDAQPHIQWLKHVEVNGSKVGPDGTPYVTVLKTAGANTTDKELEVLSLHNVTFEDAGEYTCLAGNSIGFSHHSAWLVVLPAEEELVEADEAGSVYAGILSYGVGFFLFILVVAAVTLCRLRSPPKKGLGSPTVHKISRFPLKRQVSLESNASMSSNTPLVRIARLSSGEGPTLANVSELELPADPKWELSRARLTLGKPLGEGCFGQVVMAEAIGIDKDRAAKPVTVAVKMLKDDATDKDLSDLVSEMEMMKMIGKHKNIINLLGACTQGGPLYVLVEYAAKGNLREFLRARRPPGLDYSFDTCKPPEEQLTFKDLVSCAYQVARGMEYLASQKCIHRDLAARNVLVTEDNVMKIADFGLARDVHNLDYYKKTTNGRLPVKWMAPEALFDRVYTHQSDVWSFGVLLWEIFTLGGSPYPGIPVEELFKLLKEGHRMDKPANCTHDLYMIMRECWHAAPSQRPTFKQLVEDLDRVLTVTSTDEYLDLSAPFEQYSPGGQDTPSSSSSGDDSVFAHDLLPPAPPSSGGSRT
# Assay summary: phosphorylation enrichment, bacterial display (enrichment ratio); higher = better substrate or ligand; peptides without Tyr show the background;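 note: 11-residue human phosphosite peptides and single-mutation variants displayed on the E. coli surface, counted by deep sequencing, each peptide's frequency after selection divided by its frequency in the unselected input library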;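 note: frequency after pTyr selection over input frequency; kinase dosed for 20-30% of maximal phosphorylation in three min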
Everything with phosphorylation enrichment lower than 0.7 is not satisfied; everything else, including exactly 0.7, is satisfied.

Solved entries (count: 3):
| Chain | Target or test system | Label class |
| --- | --- | --- |
| ADEEFYEIIAA [FEStide_F_2014] | FGFR3 (UniProt P22607) | satisfied |
| CGLPRYRWLTH [TSPAN12_Y143_Y138C] | FGFR3 (UniProt P22607) | not satisfied |
| RRVLVYGDRGA [QDPR_Y16_G18D] | FGFR3 (UniProt P22607) | not satisfied |

Problem: Reported phosphorylation enrichment reaches at least 0.7 for VVEDGYEFFAK [PPP1CB_Y254] ?
Result: not satisfied

Recorded values, source the supplement of paper PMC10065799.
